Reference for the values: patent US7605175B2

Tested on: peripheral blood mononuclear cells (PBMCs)
Assay: Cytotoxicity in PBMCs (MTS assay)
Format: cell-based, human
Settings: read-out: TC50: 50% cytoxicity (MTS)
Experimental: The activity of the certain compounds of the invention was evaluated in peripheral blood mononuclear cells (PBMCs) infected with the low passage, clinical isolate HIV-1 ROJO to generate a measure of the efficacy of these compounds in acutely infected cells. […] Viral replication was measured by the level of reverse transcriptase activity in the supernatant and cytotoxicity was measured with the MTS assay.
ATTRIBUTE MEASURED: CC50

Reported CC50 ( Cc1cn([C@H]2C[C@H](N=[N+]=[N-])[C@@H](CO)O2)c(=O)[nH]c1=O [AZT, reference compound] ) = > 1 µM

---

Biological target: Cdk4/cyclin D1 (Homo sapiens, UniProt P11802)
Sequence (P11802 whole entry, species assumed): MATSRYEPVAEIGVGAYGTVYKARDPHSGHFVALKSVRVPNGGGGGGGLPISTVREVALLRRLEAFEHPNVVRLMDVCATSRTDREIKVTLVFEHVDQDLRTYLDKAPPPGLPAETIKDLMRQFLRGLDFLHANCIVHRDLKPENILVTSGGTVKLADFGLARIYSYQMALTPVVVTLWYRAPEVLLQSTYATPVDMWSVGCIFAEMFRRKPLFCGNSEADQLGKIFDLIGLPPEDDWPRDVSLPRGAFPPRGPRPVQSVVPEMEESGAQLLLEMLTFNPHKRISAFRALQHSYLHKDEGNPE
Sequence (P24385 whole entry partner, species assumed): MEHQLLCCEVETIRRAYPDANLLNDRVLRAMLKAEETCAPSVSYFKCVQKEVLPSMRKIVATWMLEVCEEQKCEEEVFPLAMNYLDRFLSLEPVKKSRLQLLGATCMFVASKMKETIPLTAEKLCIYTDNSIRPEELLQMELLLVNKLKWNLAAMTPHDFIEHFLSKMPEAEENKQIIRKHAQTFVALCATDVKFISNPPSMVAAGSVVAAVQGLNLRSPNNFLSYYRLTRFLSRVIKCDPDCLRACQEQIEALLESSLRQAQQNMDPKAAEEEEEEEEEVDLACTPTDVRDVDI
Experiment: Biochemical kinase assay Cdk4/cyclin D1
Conditions: Table 6
Protocol: Enzymes: Cdc2/cyclin B was obtained from commercial sources. Cdk2/his-cyclin Eshort was expressed in Sf9 cells. Cdk2/cyclin A, cdk4/cyclin D1, and cdk6/cyclin D2 were expressed in Sf9 cells. Protein kinase A (catalytic subunit, from bovine heart) and protein kinase C (mixed isozymes from rat brain) were obtained from commercial sources. […] Cdk2/cyclin E, Cdk2/cyclin A, Cdk4/cyclin D1, and Cdk6/cyclin D2 activity was determined using a glutathione-sepharose capture assay. […]
pIC50: −log10 of the molar value.
Reported pIC50 values follow for various molecules

MOLECULE: Cc1cc(-c2[nH]nc3c2C(=O)c2c(NC(=O)NN4CCOCC4)cccc2-3)ccc1OCCN1CCCC1 [Compound A25]
pIC50: > 7.00

MOLECULE: COCCOc1ccc(Cc2nc3c(c(C(C)C)nn3-c3c(Cl)cccc3Cl)c(=O)[nH]2)cc1 [Compound A66]
pIC50: > 5.00

Reported pIC50 ( CC(C)c1nn(-c2c(Cl)cc(Cl)cc2Cl)c2nc(Cc3ccc(NS(=O)(=O)CCCN4CCN(C(C)C)CC4)cc3)[nH]c(=O)c12 [Compound A39] ) = > 6.00

Reported pIC50 ( O=C(Nc1cccc2c1C(=O)c1c-2n[nH]c1-c1ccc(OCC(=O)N2CCOCC2)cc1)NN1CCOCC1 [Compound A36] ) = > 7.00

Reported pIC50 ( O=C(Nc1cccc2c1C(=O)c1c-2n[nH]c1-c1ccc(OCC(=O)N2CCCC2)cc1)NN1CCOCC1 [Compound A46] ) = > 6.00

Reported pIC50 ( O=C(Nc1cccc2c1C(=O)c1c-2n[nH]c1-c1ccc(OCCN2CCOCC2)cc1)NN1CCOCC1 [Compound A3] ) = > 7.00

Reported pIC50 ( CC(C)N1CCN(CCOc2ccc(-c3n[nH]c4c3C(=O)c3c(NC(=O)NN5CCOCC5)cccc3-4)cc2F)CC1 [Compound A22] ) = > 7.00

Reported pIC50 ( Cc1cc(OCCn2cccn2)ccc1-c1[nH]nc2c1C(=O)c1c(NC(=O)NN3CCN(C)CC3)cccc1-2 [Compound A11] ) = > 7.00

Reported pIC50 ( CC(C)N1CCN(C(=O)COc2ccc(-c3[nH]nc4c3C(=O)c3c(NC(=O)NN5CCOCC5)cccc3-4)cc2)CC1.Cl [Compound A37] ) = > 7.00

---

Target: Cdc2/cyclin B (Homo sapiens)
Sequence (P06493 whole entry, species assumed): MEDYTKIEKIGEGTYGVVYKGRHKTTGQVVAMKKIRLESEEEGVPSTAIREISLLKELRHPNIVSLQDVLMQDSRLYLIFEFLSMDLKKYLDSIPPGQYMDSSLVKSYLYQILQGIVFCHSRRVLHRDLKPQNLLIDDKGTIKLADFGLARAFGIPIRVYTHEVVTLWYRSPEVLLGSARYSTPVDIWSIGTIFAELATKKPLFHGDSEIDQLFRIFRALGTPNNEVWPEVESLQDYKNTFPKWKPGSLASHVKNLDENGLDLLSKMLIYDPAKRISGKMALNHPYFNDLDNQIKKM
Sequence (P14635 whole entry partner, species assumed): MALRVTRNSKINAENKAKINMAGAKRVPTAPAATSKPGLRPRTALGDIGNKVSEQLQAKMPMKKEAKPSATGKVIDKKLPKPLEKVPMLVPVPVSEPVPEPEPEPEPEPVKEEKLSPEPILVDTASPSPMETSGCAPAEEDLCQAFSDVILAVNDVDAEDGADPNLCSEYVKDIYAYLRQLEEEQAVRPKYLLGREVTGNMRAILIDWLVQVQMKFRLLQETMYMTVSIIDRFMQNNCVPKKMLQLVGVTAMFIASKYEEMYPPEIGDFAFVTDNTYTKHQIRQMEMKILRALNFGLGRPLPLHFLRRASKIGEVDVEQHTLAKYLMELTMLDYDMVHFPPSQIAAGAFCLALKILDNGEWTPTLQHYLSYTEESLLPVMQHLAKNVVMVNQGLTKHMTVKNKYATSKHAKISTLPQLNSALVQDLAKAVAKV
Experiment: Biochemical kinase assay Cdc2/cyclin B
Settings: Table 6
Reported IC50 values follow for various compounds

Example compounds with recorded IC50:
INPUT SMILES: O=C(Nc1cccc2c1C(=O)c1c(-c3ccc(CN4CCN(CCO)CC4)cc3)n[nH]c1-2)NN1CCOCC1
DATA VALUE: < 10 nM
--
INPUT SMILES: CN(C)C(=O)CN1CCN(NC(=O)Nc2cccc3c2C(=O)c2c-3n[nH]c2-c2ccc(OCCN3CCCC3)cc2)CC1
DATA VALUE: < 1000 nM
--
INPUT SMILES: CC(C)c1nn(-c2c(Cl)cc(Cl)cc2Cl)c2nc(Cc3ccc(CN4CCN(C(C)C)CC4)n3C)[nH]c(=O)c12
DATA VALUE: < 1000 nM
--
INPUT SMILES: CC(C)c1nn(-c2c(Cl)cccc2Cl)c2nc(Cc3ccc(NS(=O)(=O)CCCN4CCOCC4)cc3)[nH]c(=O)c12
DATA VALUE: < 1000 nM

Proceed to the following item.
Reported IC50 ( Cc1cc(OCCN2CCOCC2)ccc1-c1[nH]nc2c1C(=O)c1c(NC(=O)NN3CCN(C)CC3)cccc1-2 ) = < 100 nM
